system: MOLT-4 leukemia; test: NCI-60 one-dose screen, 48 h (100 = growth as untreated, 0 = no growth, -100 = all killed); details: 10 µM unless noted
Compounds without any hit were thinned out: in the full panel of roughly 83,000, 20% have a hit.
# growth >= 80% gives Y, anything below gives N

Use the examples below as a reference point.
CC(=O)Nc1nc(C(=O)N2N=C(C)/C(=C/c3ccccc3)C2=O)cs1	Y
COc1cc(/C=C2\CCCC3=C2N=C2SC(C)=NN2C3c2cc(OC)c(OC)c(OC)c2)cc(OC)c1OC (stereo not given)	N
COc1ccc(/C=C2\CCCC3=C2NC(C)=NC3c2ccc(OC)c(OC)c2)cc1OC (stereo not given)	N
COc1ccc(/C=C/C(=O)c2ccc(NC(=O)CN3CCN(c4cc5c(cc4F)c(=O)c(C(=O)O)cn5C4CC4)CC3)cc2)cc1	Y
CC(C)CCC[C@@H](C)[C@H]1CC[C@H]2[C@@H]3CC[C@H]4C/C(=N/O)CC[C@]4(C)[C@H]3CC[C@]12C	Y
NC(=O)c1ccc2c(c1)OCO2	Y
O=C(Nc1ccc(F)c(Cl)c1)c1n[nH]c(=O)c2ccccc12	Y
C=CCc1cc(Cl)cc2c(OC(C)=O)c(C(C)=O)c(-c3ccccc3)nc12	Y

**Q:** Form field: growth at least 80%? Entry: COc1ccc(/C=C/c2nc(N3CCOCC3)c3cc(F)c(F)cc3n2)cc1OC
**A:** N

**Q:** Is growth for O=[N+]([O-])c1ccc(S(=O)(=O)N2CCN(c3ccnc4cc(Cl)ccc34)CC2)c([N+](=O)[O-])c1 at or above 80%?
**A:** N

**Q:** Hello, I need to know if Cc1ccc2c(c1)C(C)Cc1c(N(C)C)ncnc1N2C (stereo not given) has measured growth not below 80%. Thanks!
**A:** N

**Q:** growth >= 80% for COc1ccc(C2SCC(=O)N2NC(=O)c2ccc(NC(=O)c3ccccn3)cc2)cc1OC (stereo not given) ?
**A:** Y

**Q:** Hello, I need to know if O=C(Nc1ccc(Br)c(Cl)c1)c1cc(F)ccc1O has measured growth not below 80%. Thanks!
**A:** N

**Q:** Given CCOC(=O)CC/C(C)=N\Nc1ccc([N+](=O)[O-])cc1 , state whether its growth is at least 80%.
**A:** N

**Q:** Hi team, for CCNC(=O)C1CCCN1C(=O)C(CCCN=C(N)N)NC(=O)C(CC(C)C)NC(=O)C(CC(C)C)NC(=O)C(Cc1ccc(O)cc1)NC(=O)C(CO)NC(=O)C(Cc1c[nH]c2ccccc12)NC(=O)C(Cc1cnc[nH]1)NC(=O)C1CCC(=O)N1 (stereo not given) , is the recorded growth at or above 80%?
**A:** Y

**Q:** // inclusive: growth at least 80%? input: CCN(Cc1ccccc1)c1ccc(SC#N)cc1
**A:** N

**Q:** Answer whether growth of CCOC(=O)[C@H](CSSc1ncnc2cc[nH]c12)NC(=O)[C@@H](C)c1ccc2cc(OC)ccc2c1 is greater than or equal to 80%.
**A:** N

**Q:** State whether the measured growth reaches 80%, counting equality as reaching it, for CC(C(=O)n1cc(-c2ccccc2)c(-c2ccccc2)c1)c1ccccc1 (stereo not given)
**A:** Y

----------
system: NCI-H226 lung; experiment: NCI-60 one-dose screen, 48 h (100 = growth as untreated, 0 = no growth, -100 = all killed); conditions: 10 µM unless noted
About 83,000 compounds went through this panel and 20% of them were active in at least one assay; those are over-represented in the sample as a whole.
Recorded growth determines the group label, using bottom end = under 60%, midrange = from 60% up to 80%, top end = 80% and over

**Q:** Form field 'band' for COc1ccc(/C=C\c2cc(OC)c(OC)c(OC)c2)c(NS(=O)(=O)c2ccc(C(C)(C)C)cc2)c1O
**A:** bottom end

**Q:** Would you mind sorting COc1cccc(/C=C/C(=O)c2sc(Nc3ccc(O)cc3)nc2C)c1 into the appropriate category?
**A:** top end

**Q:** Class label required: CCCCCCCCCCn1cc[n+](C)c1
**A:** bottom end

**Q:** State the band of C=C1C(=O)O[C@H]2[C@H]1CC/C(Cn1cc(-c3ccsc3)nn1)=C\CC[C@@]1(C)O[C@@H]21
**A:** bottom end

**Q:** Category lookup for the molecule CC(=O)Oc1cccc(OC(C)=O)c1OC(C)=O
**A:** top end

**Q:** Class (by measured growth) for O=C(Nc1cccc(Cl)c1)c1cc([N+](=O)[O-])ccc1O
**A:** midrange

**Q:** Category of c1ccc([P+](CCC[P+](c2ccccc2)(c2ccccc2)c2ccccc2)(c2ccccc2)c2ccccc2)cc1 , please.
**A:** top end

**Q:** # bin label for O=C1Nc2cc(Cl)ccc2Oc2cc(Oc3ccccc3)ccc21
**A:** midrange

**Q:** Class label required: Nc1c(C(=O)Nc2cccc(C(F)(F)F)c2)sc2nc3c(cc12)CCCCCC3
**A:** bottom end

**Q:** The entry to classify is CCNC(=O)CCCCC(=O)c1c(C)[nH]c(/C=C2\N=C(c3ccc[nH]3)C=C2OC)c1C ; which class holds it?
**A:** midrange

**Q:** Band of O=C(NNC(=S)Nc1ccccc1)c1ccccn1 ?
**A:** bottom end

**Q:** Please classify: C=CCn1c(C)nc2ccc(Nc3nc(Nc4ccc(F)cc4)nc4ccccc34)cc21
**A:** top end

**Q:** Assign a bin to O=C(C[N+](=O)[O-])c1ccc(Cl)cc1
**A:** top end

**Q:** Which category does the recorded growth put COc1cccc(NC(=O)Cn2cc3c(=O)oc4ccccc4c3n2)c1 in?
**A:** top end

**Q:** Which class does COc1ccc(-c2nc3sccn3c2-c2ccnc(NCCCNS(=O)(=O)c3ccc4ccccc4c3)n2)cc1 fall in?
**A:** midrange

**Q:** Hi, small favor: classify COc1ccc(C(=O)/C=C/c2ccc(/C=C/c3cc(OC)c(OC)c(OC)c3)cc2)cc1 by its growth when you get a moment.
**A:** midrange

**Q:** Input CCNc1nc(N2CC(=O)Nc3cc(OC)ccc32)c2ccccc2n1 ; output its category
**A:** bottom end

**Q:** Textbook exercise: identify the category of the molecule given here, CCn1c(=O)c2c(=O)c3c4c(oc3oc2c2ccccc21)C(=O)c1ccccc1C4=O , according to its measured value.
**A:** top end

**Q:** Sort COc1cc(C2C=C(C)N=C3SC=C(C)N32)cc(OC)c1OC (stereo unspecified) into one of the categories.
**A:** bottom end

----------
tested on: HCT-116 colon; assay: NCI-60 one-dose screen, 48 h (100 = growth as untreated, 0 = no growth, -100 = all killed); conditions: 10 µM unless noted
The panel holds about 83,000 compounds, 20% with a hit somewhere; the sample as a whole holds those more often.
outcome measure: growth (%)
Form entry: value (%) — number only.

COc1ncc(-c2ccc3ncnc(Nc4cccc(Cl)c4)c3c2)cc1NS(=O)(=O)C1CC1	49.2

Note: attention shifts to another entry.
Input COc1cc(OC)cc(-c2n[nH]nc2-c2ccc3c(c2)OCO3)c1 . Output growth: 15.7

----------
tested on: HCT-116 colon; test: NCI-60 one-dose screen, 48 h; conditions: 10 µM unless noted
The panel holds about 83,000 compounds, 20% with a hit somewhere; the sample as a whole holds those more often. Active and inactive are the calls of the source. The calls were made as follows: active = growth percent below 10; inactive = the rest.
The reply should be one of these categories: active, inactive

Record excerpt, results attached:
COc1cc(/C=C2\CCCC3=C2NC(C)=NC3c2cc(OC)c(OC)c(OC)c2)cc(OC)c1OC (stereo unspecified)	active
C=C1C(=O)O[C@H]2[C@H]1CC/C(COC(=O)NCc1ccc(OC)cc1)=C\CC[C@@]1(C)O[C@@H]21	active
CCN(CC)CCC(=O)c1cccc2ccccc12	inactive
O=c1cc(C2NCCc3c2[nH]c2ccccc32)c2c(ccc3ccccc32)o1 (stereo unspecified)	inactive
COc1ccc(-c2cn[nH]c2-c2cc(OC)c3c(c2)OCO3)cc1	inactive
O=C1CCC/C=C\C[C@H]2C=CC(=O)/C2=C/C[C@H](C/C=C\CC(F)(F)F)O1	active
CC(C)(C)OC(=O)N1C/C(=C\c2cccs2)C(=O)/C(=C/c2cccs2)C1	inactive
Cc1c(C2=NNC(c3ccc4c(c3)OCO4)C2)[n+]([O-])c2ccccc2[n+]1[O-] (stereo unspecified)	inactive

**Q:** So what was the verdict on CC/C=C\C[C@H](O)C/C=C1/C(=O)C(Cl)=C[C@@H]1C/C=C\CCCC(=O)O in this test?
**A:** active

**Q:** What call does the record list for COc1cccc(/C=C2\SC(N3CCN(c4ccccn4)CC3)=NC2=O)c1 ?
**A:** inactive

**Q:** Outcome logged for CCn1cc(C2NC(=O)c3cc(F)ccc3N2)c2cccc(Cl)c21 (stereo unspecified) in this assay:
**A:** active
